# Tested on: influenza A virus A/Jena/8178/09 (subtype A(H1N1)pdm09)
# Protocol description: Influenza A virus-induced CPE inhibition assay in MDCK cells (A/Jena/8178/09)
# Format: cell-based
# Measurement setup: Influenza A virus, A(H1N1)pdm09, 48 h, maximum 100 µM, n.a. = not active, read-out: IC50 (IAV) Jena/8178
Threshold 30 µM: IC50 strictly smaller gives 1 (yes), otherwise 0 (no).

CCOC(=O)c1c(C)n(Cc2ccccc2)c2c1cc(OC(C)=O)c1c2c(-c2ccccc2)nn1-c1ccccc1 [Compound 7b]
0 (no)

input: Check if IC50 falls below 30 µM for CCOC(=O)c1c(C)n(C)c2c1cc(O)c1c2c(-c2ccccc2)nn1-c1ccccc1 [Compound 6b] .
output: 0 (no)

input: Regarding CCOC(=O)c1c(CN2CCCCC2)n(C)c2c1cc(O)c1c2c(-c2ccccc2)nn1-c1ccccc1 [Compound 10a] , kindly confirm whether its IC50 is beneath 30 µM.
output: 0 (no)

input: Given CCOC(=O)c1c(C)n(CC)c2c1cc(OCC)c1c2c(-c2ccc([N+](=O)[O-])cc2)nn1-c1ccccc1 [Compound 11b] , is recorded IC50 strictly lower than 30 µM?
output: 1 (yes)

input: For this compound, is IC50 lower than 30 µM? CCOC(=O)c1c(CN(CC)CC)n(C)c2c1cc(OC(C)=O)c1c2c(-c2ccccc2)nn1-c1ccccc1 [Compound 9b]
output: 0 (no)

input: Problem: For the compound CC(=O)N[C@H]1[C@H]([C@H](O)[C@H](O)CO)OC(C(=O)O)=C[C@@H]1N=C(N)N [Zanamivir, zanamivir, reference compound] , is IC50 under 30 µM?
output: 1 (yes)

---

Reported melting point is given for each of the following compounds.

Illustrative cases are given below, each with its answer.
CCOC(=O)c1c(C)n(C)c2c1cc(O)c1c2c(-c2ccc([N+](=O)[O-])cc2)nn1-c1ccccc1
258 to 261 °C
CCOC(=O)c1c(C)n(CC)c2c1cc(OCC)c1c2c(-c2ccc([N+](=O)[O-])cc2)nn1-c1ccccc1 [Compound 11b]
175 to 177 °C
CCOC(=O)c1c(C)n(-c2ccc(OC)cc2)c2c1cc(O)c1c2c(-c2ccccc2)nn1-c1ccccc1
277 to 279 °C
CCOC(=O)c1c(C)n(Cc2ccccc2)c2c1cc(O)c1c2c(-c2ccccc2)nn1-c1ccccc1
256 to 258 °C
CCOC(=O)c1c(C)n(C)c2c1cc(OC(C)=O)c1c2c(-c2ccccc2)nn1-c1ccccc1
214 to 216 °C
CCOC(=O)c1c(CN2CCCCC2)n(C)c2c1cc(OC(C)=O)c1c2c(-c2ccccc2)nn1-c1ccccc1
203 to 205 °C

API: the following record is the query input.
input: Please indicate melting point recorded for `CCOC(=O)c1c(C)n(C)c2c1cc(O)c1c2c(-c2ccccc2)nn1-c1ccccc1`
output: 270 to 272 °C

---

Quantity name: melting point

CCOC(=O)c1c(CN2CCOCC2)n(Cc2ccccc2)c2c1cc(O)c1c2c(-c2ccccc2)nn1-c1ccccc1 [Compound 10b]
145 to 146 °C
CCOC(=O)c1c(C)n(Cc2ccccc2)c2c1cc(O)c1c2c(-c2ccc([N+](=O)[O-])cc2)nn1-c1ccccc1
226 to 228 °C

Could you now look at the following compound, please?
input: Read the entry CCOC(=O)c1c(CN2CCCCC2)n(C)c2c1cc(O)c1c2c(-c2ccccc2)nn1-c1ccccc1 [Compound 10a] and write its reported melting point.
output: 285 °C

---

# Tested on: influenza A virus A/HK/1/68 (subtype H3N2)
# Protocol description: Influenza A virus-induced CPE inhibition assay in MDCK cells (A/HK/1/68)
# Assay type: cell-based
# Measurement setup: H3N2, 48 h, maximum 100 µM, n.a. = not active, read-out: IC50 (IAV) HK/1/68
Quantity name: pIC50
// pIC50 is dimensionless: -log10 of concentration (M)

input: Send back influenza A virus A/HK/1/68 (subtype H3N2) pIC50 of CCOC(=O)C1=C[C@@H](OC(CC)CC)[C@H](NC(C)=O)[C@@H](N)C1 [Oseltamivir, oseltamivir, reference compound] only.
output: 8.40

---

Recorded MIC S.p. NanA (minimum neuraminidase inhibitory concentration), one value per entry.
# System tested: neuraminidase NanA of S. pneumoniae strain DSM20566 (Streptococcus pneumoniae)
# Sequence (P62575 54-1035): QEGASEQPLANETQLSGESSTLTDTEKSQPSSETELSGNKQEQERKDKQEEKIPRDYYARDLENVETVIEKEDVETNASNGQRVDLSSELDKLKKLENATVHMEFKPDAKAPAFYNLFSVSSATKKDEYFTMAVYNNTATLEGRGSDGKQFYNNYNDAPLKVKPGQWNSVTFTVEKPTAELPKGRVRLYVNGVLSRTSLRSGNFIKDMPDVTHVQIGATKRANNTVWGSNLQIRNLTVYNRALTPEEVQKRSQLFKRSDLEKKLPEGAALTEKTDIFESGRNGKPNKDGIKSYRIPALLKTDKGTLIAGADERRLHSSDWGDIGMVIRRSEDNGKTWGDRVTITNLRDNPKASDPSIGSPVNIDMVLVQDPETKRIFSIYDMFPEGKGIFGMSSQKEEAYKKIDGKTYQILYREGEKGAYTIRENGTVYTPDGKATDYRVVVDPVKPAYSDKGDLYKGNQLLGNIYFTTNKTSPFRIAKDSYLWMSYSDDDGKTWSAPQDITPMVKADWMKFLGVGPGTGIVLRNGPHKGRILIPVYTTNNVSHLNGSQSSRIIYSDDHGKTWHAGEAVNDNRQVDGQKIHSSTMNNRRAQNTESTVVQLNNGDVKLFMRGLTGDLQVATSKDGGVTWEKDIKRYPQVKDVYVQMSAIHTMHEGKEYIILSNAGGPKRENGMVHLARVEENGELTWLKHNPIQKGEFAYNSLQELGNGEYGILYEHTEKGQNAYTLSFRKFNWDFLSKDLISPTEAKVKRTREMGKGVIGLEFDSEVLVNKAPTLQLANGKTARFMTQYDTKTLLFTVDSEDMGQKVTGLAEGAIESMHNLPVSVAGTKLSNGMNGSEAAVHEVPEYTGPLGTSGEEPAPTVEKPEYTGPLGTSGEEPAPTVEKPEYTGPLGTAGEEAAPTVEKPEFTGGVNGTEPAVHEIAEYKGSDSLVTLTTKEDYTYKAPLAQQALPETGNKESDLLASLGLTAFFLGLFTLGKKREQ
# Protocol description: Lectin-based hemagglutination NA inhibition assay with pneumococcal neuraminidase
# Assay type: biochemical
# Measurement setup: ethanol-precipitated proteins of S. pneumoniae DSM20566, lectin-based hemagglutination assay
Express it in µM; write the number only.

input: Supply recorded MIC S.p. NanA (minimum neuraminidase inhibitory concentration) for CCOC(=O)c1c(CN2CCCCC2)n(C)c2c1cc(O)c1c2c(-c2ccccc2)nn1-c1ccccc1 [Compound 10a] here.
output: 31.60

input: Tell me its MIC S.p. NanA (minimum neuraminidase inhibitory concentration) given CCOC(=O)c1c(C)n(C)c2c1cc(OC)c1c2c(-c2ccc([N+](=O)[O-])cc2)nn1-c1ccccc1 [Compound 11a] as the entry.
output: 31.60

input: In one line, give reported MIC S.p. NanA (minimum neuraminidase inhibitory concentration) of the entry CCOC(=O)c1c(CN2CCCCC2)n(C)c2c1cc(OC(C)=O)c1c2c(-c2ccccc2)nn1-c1ccccc1 [Compound 9a] .
output: 54.40

input: Please report MIC S.p. NanA (minimum neuraminidase inhibitory concentration) for the following molecule: CCOC(=O)c1c(C)n(Cc2ccccc2)c2c1cc(OC(C)=O)c1c2c(-c2ccccc2)nn1-c1ccccc1 [Compound 7b]
output: 31.60

---

# System tested: neuraminidase NanA of S. pneumoniae strain DSM20566 (Streptococcus pneumoniae)
# Protocol description: Lectin-based hemagglutination NA inhibition assay with pneumococcal neuraminidase
# Format: biochemical
# Measurement setup: ethanol-precipitated proteins of S. pneumoniae DSM20566, lectin-based hemagglutination assay
Quantity name: MIC S.p. NanA (minimum neuraminidase inhibitory concentration) (µM)
Response body: numeric value in µM, unit text excluded.

Example molecules with recorded MIC S.p. NanA (minimum neuraminidase inhibitory concentration):
CCOC(=O)c1c(CN(CC)CC)n(C)c2c1cc(OC(C)=O)c1c2c(-c2ccccc2)nn1-c1ccccc1 [Compound 9b]
24.40
CCOC(=O)c1c(C)n(Cc2ccccc2)c2c1cc(O)c1c2c(-c2ccccc2)nn1-c1ccccc1 [Compound 6c]
24.40
CCOC(=O)c1c(C)n(C)c2c1cc(O)c1c2c(-c2ccc([N+](=O)[O-])cc2)nn1-c1ccccc1 [Compound 6f]
31.60
CCOC(=O)c1c(C)[nH]c2c1cc(OCC)c1c2c(-c2ccc([N+](=O)[O-])cc2)nn1-c1ccccc1 [Compound 11c]
54.40
CCOC(=O)c1c(C)n(-c2ccc(OC)cc2)c2c1cc(O)c1c2c(-c2ccccc2)nn1-c1ccccc1 [Compound 6d]
17.20

input: Read off the recorded MIC S.p. NanA (minimum neuraminidase inhibitory concentration) for CCOC(=O)c1c(C)n(C)c2c1cc(O)c1c2c(-c2ccccc2)nn1-c1ccccc1 [Compound 6b]
output: 31.60

input: For the molecule CCOC(=O)c1c(C)n(C)c2c1cc(OC(C)=O)c1c2c(-c2ccccc2)nn1-c1ccccc1 [Compound 7a] , give its reported MIC S.p. NanA (minimum neuraminidase inhibitory concentration).
output: 31.60

input: Given CCOC(=O)c1c(C)n(CC)c2c1cc(OCC)c1c2c(-c2ccc([N+](=O)[O-])cc2)nn1-c1ccccc1 [Compound 11b] , respond with its MIC S.p. NanA (minimum neuraminidase inhibitory concentration).
output: 54.40

---

# System: influenza A virus A/Jena/8178/09 (subtype A(H1N1)pdm09)
# Protocol description: Influenza A virus-induced CPE inhibition assay in MDCK cells (A/Jena/8178/09)
# Assay type: cell-based
# Measurement setup: Influenza A virus, A(H1N1)pdm09, 48 h, maximum 100 µM, n.a. = not active, read-out: IC50 (IAV) Jena/8178
Measured IC50 accompanies every entry in the list below.

CCOC(=O)c1c(C)[nH]c2c1cc(OCC)c1c2c(-c2ccc([N+](=O)[O-])cc2)nn1-c1ccccc1 [Compound 11c]
30.3 µM
CCOC(=O)c1c(C)[nH]c2c1cc(O)c1c2c(-c2ccc(N)cc2)nn1-c1ccccc1
15.7 µM
CCOC(=O)c1c(C)[nH]c2c1cc(OC(C)=O)c1c2c(-c2ccc(N)cc2)nn1-c1ccccc1
14.1 µM
CCOC(=O)c1c(C)[nH]c2c1cc(OC(C)=O)c1c2c(-c2ccc([N+](=O)[O-])cc2)nn1-c1ccccc1 [Compound 11e]
16.7 µM
CCOC(=O)c1c(C)n(C)c2c1cc(OC)c1c2c(-c2ccc([N+](=O)[O-])cc2)nn1-c1ccccc1 [Compound 11a]
21.5 µM
CCCCCOc1cc2c(C(=O)OCC)c(C)[nH]c2c2c(-c3ccc([N+](=O)[O-])cc3)nn(-c3ccccc3)c12 [Compound 11d]
26.5 µM
CCOC(=O)c1c(C)n(-c2ccc(OC)cc2)c2c1cc(O)c1c2c(-c2ccccc2)nn1-c1ccccc1
38.6 µM
CCOC(=O)c1c(C)[nH]c2c1cc(O)c1c2c(-c2ccc(-n3cccc3)cc2)nn1-c1ccccc1
11.4 µM
CCOC(=O)c1c(C)n(Cc2ccccc2)c2c1cc(O)c1c2c(-c2ccccc2)nn1-c1ccccc1
71.1 µM
CCOC(=O)c1c(C)n(C)c2c1cc(OC(C)=O)c1c2c(-c2ccccc2)nn1-c1ccccc1
83.7 µM

Note: attention shifts to another entry.
input: Determine from records and report IC50 for CCOC(=O)c1c(CN2CCOCC2)n(Cc2ccccc2)c2c1cc(O)c1c2c(-c2ccccc2)nn1-c1ccccc1 [Compound 10b]
output: 33.2 µM
